assay: blockers of Ca2+-induced mitochondrial swelling – biochemical, isolated mouse mitochondria, absorbance, primary screen (AID 602449); settings: 30 min, at 10 µM, hits give high values;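 also: 0% = DMSO wells given calcium and 100% = 1 mM EGTA wells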
About 5,000 (1.4%) of roughly 360,000 compounds were called active. What follows is part of a selection rich in actives, with near analogues and random picks from the rest.
Give inhibition for every item shown.
Numbers only, in %.

Provide each entry's inhibition from the list below.
1. CCN(CC)S(=O)(=O)c1ccc(N(C)Cc2cccc(OC)c2OC)nc1
2. N#Cc1c(NC(=O)CCCN2C(=O)c3ccccc3C2=O)oc(-c2ccccc2)c1-c1ccccc1

[3.9, -0.2]

Provide each entry's inhibition from the list below.
1. CCN(CC)S(=O)(=O)c1ccc(N(C)CCc2ccc(OC)c(OC)c2)nc1
2. Cc1ccc(C2(C(F)(F)F)N=C3Sc4cc(C)cc(C)c4N3C(=O)N2)cc1 (stereo unspecified)
3. CSc1ccc(/C=C2\NC(=O)NC2=O)cc1
4. COc1cc(C(=O)NCC(=O)N2CC=C(c3ccccc3)CC2)cc(OC)c1OC

[-2, 5.4, 0.6, 0]

====

experiment: blockers of Ca2+-induced mitochondrial swelling – biochemical, isolated mouse mitochondria, absorbance, primary screen (AID 602449); details: 30 min, at 10 µM;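 also: 0% = DMSO wells given calcium and 100% = 1 mM EGTA wells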
The campaign covered roughly 360,000 compounds. About 5,000 (1.4%) were called active.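 The calls were made as follows: active = inhibition of 50% or more, scaled per plate between neutral and stimulator controls; inactive = the rest.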 The sample holds actives, similar compounds and a random draw of the others, so the mix is not that of the screen.
Please answer using one outcome listed in label 1 (active), label 0 (inactive)

Some entries whose results are on file:
COc1ccc(C(=O)OCC(=O)Nc2cccc(C(C)=O)c2)cc1OC	label 0
Fc1ccc(N2N=C(c3cccs3)CC2c2ccco2)c(F)c1 (stereo not drawn)	label 1
CN/C(=C\[N+](=O)[O-])NCCSCc1csc(CN(C)C)n1	label 0
CCSc1nsc(NC(=O)Nc2cccc(C(C)=O)c2)n1	label 1
c1ccc(CSCCc2ccncc2)cc1	label 0

Called result for "O=C(Nc1cccc(-c2cccc(Cl)c2)c1)C1CCN(C2CCC2)CC1"
label 1

Called result for "O=S(=O)(NC(=S)Nc1ccccc1)c1ccc(F)cc1"
label 0

Called result for "O=S(=O)(N1CCCCC1)N1CCNCC1"
label 0

====

experiment: blockers of Ca2+-induced mitochondrial swelling – biochemical, isolated mouse mitochondria, absorbance, primary screen (AID 602449); settings: 30 min, at 10 µM, hits give high values;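 also: 0% = DMSO wells given calcium and 100% = 1 mM EGTA wells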
In all, about 360,000 compounds went through this assay and about 5,000 (1.4%) were called active. Shown is part of a subset that was picked to be rich in actives.
TEST READOUT: inhibition (%)
Answers are plain numbers, in %.

Take a look at these entries with their results.
CCOC(=O)C1CCCN(S(=O)(=O)c2ccc(-n3cnnn3)c(C)c2)C1 (stereo not given)	0.9
CC(=O)c1c(C)[nH]c(C(=O)OCC(=O)Nc2sc3c(c2C#N)CCCC3)c1C	98.8
Cc1ccn(CC(=O)NC2CCCN(Cc3ccccc3F)C2)n1 (stereo not given)	0.4
Cc1ccc(OC(=O)c2c(C)nn(-c3ccccc3)c2C)cc1	-0.9
COc1ccc(NC(=O)C(CC(C)C)NC(=O)C2CCC(C)CC2)cc1 (stereo not given)	0.1
COCCn1c(CN2CCC(Cc3ccccc3)CC2)nc2c1c(=O)n(C)c(=O)n2C	83.7
COc1ccc(CN(Cc2ccco2)S(=O)(=O)c2ccc(S(=O)(=O)N3CCCC3)cc2)cc1	11.4
CCCCOC(=O)c1[nH]c(C)c(C(=O)OC)c1C	1.6
CC(=O)c1c(C)[nH]c(C(=O)Nc2cc(S(=O)(=O)N(C)C)ccc2C)c1C	-1.8

Look at this compound and give its reported inhibition. "Cc1cc(Cl)c(S(=O)(=O)NCCC(=O)O)cc1OCC(N)=O"
-1.7

====

experiment: blockers of Ca2+-induced mitochondrial swelling – biochemical, isolated mouse mitochondria, absorbance, primary screen (AID 602449); details: 30 min, at 10 µM, hits give high values;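 also: 0% = DMSO wells given calcium and 100% = 1 mM EGTA wells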
Among all 360,000 compounds or so, about 5,000 (1.4%) were called active. Only a selection was taken, and actives are over-represented in it overall.
Give inhibition for every item shown.

Take a look at these entries with their results.
Cc1cc(C)c(NC(=O)CSc2nc3ccncc3[nH]2)c(C)c1	-1.3% (inactive)
FC(F)(F)COc1nc(N2CCCCC2)nc(N2CCNCC2)n1	78.3% (active)
CCCCNC(=S)NNC(=O)c1cc(C)on1	-1.2% (inactive)
CSc1nsc(NC(=O)Nc2ccccc2)n1	85.4% (active)
COc1ccc(NC(=O)C(c2ccncc2)n2c(=O)c(-c3cc4ccccc4[nH]3)nc3ccccc32)cc1 (stereo not given)	4.2% (inactive)
O=C(Nc1nc(-c2ccc3c(c2)OCO3)cs1)c1ccncc1	72.3% (active)
CC(=O)c1cccc(NC(=O)[C@@H](NC(N)=O)C(C)C)c1	0.5% (inactive)
O=C(Nc1ccccc1)Nc1nc2ccccc2s1	96.5% (active)

Provide each entry's inhibition from the list below.
1. CCn1cc(CN2CCC(C(=O)Nc3cccc(-c4cccc(Cl)c4)c3)CC2)c(C)n1
2. COc1ccc(C(O)c2nc(-c3ccc4c(c3)OCO4)cs2)cc1 (stereo not given)

["0.6% (inactive)", "2.5% (inactive)"]
